Attribution: PubChem BioAssay AID1963433

- Tested on: 772245-204-R-J1-PDC complex spheroid growth;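 note: compound exposure lasted seven days; 100% = DMSO vehicle control viability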
- Measurement description: Anticancer human tumor 772245-204-R-J1-PDC patient-derived rhabdomyosarcoma cell line growth inhibition [Asc]
- Run conditions: second compound 3.16 µM; first compound 0.1 µM; hits give low values
viability, T/C values, listed per item
Test readout: viability, T/C (%)

>>> number("C#Cc1c(F)ccc2cc(O)cc(-c3ncc4c(N5CC6CCC(C5)N6)nc(OCC56CCCN5CC(F)C6)nc4c3F)c12 (stereo not given) + Cc1c(S(C)(=O)=O)c(-c2cc(F)cc(N3CCN(c4ccc(NS(=O)(=O)c5ccc(NC(CCN6CCC(C(=O)OCCCP(=O)(O)O)CC6)CSc6ccccc6)c(S(=O)(=O)C(F)(F)F)c5)cc4)CC3)c2)c(-c2ccc(Cl)cc2)n1C(C)C")
46.7
>>> number("O=C(c1cc(Cc2n[nH]c(=O)c3ccccc23)ccc1F)N1CCN(C(=O)C2CC2)CC1 + Cc1c(S(C)(=O)=O)c(-c2cc(F)cc(N3CCN(c4ccc(NS(=O)(=O)c5ccc(NC(CCN6CCC(C(=O)OCCCP(=O)(O)O)CC6)CSc6ccccc6)c(S(=O)(=O)C(F)(F)F)c5)cc4)CC3)c2)c(-c2ccc(Cl)cc2)n1C(C)C")
36.3
>>> number("C=C(F)C(=O)N1CCN(c2nc(OCC3CCCN3C)nc3c2CCN(c2cccc4cccc(Cl)c24)C3)CC1CC#N (stereo not given) + Cc1c(S(C)(=O)=O)c(-c2cc(F)cc(N3CCN(c4ccc(NS(=O)(=O)c5ccc(NC(CCN6CCC(C(=O)OCCCP(=O)(O)O)CC6)CSc6ccccc6)c(S(=O)(=O)C(F)(F)F)c5)cc4)CC3)c2)c(-c2ccc(Cl)cc2)n1C(C)C")
39.7
>>> number("O=C(c1ccc(F)c(F)c1Nc1ccc(I)cc1F)N1CC(O)([C@@H]2CCCCN2)C1 + Cc1c(S(C)(=O)=O)c(-c2cc(F)cc(N3CCN(c4ccc(NS(=O)(=O)c5ccc(NC(CCN6CCC(C(=O)OCCCP(=O)(O)O)CC6)CSc6ccccc6)c(S(=O)(=O)C(F)(F)F)c5)cc4)CC3)c2)c(-c2ccc(Cl)cc2)n1C(C)C")
59.7
>>> number("CCN1CCN(Cc2ccc(Nc3ncc(F)c(-c4cc(F)c5nc(C)n(C(C)C)c5c4)n3)nc2)CC1 + Cc1c(S(C)(=O)=O)c(-c2cc(F)cc(N3CCN(c4ccc(NS(=O)(=O)c5ccc(NC(CCN6CCC(C(=O)OCCCP(=O)(O)O)CC6)CSc6ccccc6)c(S(=O)(=O)C(F)(F)F)c5)cc4)CC3)c2)c(-c2ccc(Cl)cc2)n1C(C)C")
32.6
>>> number("C=CC(=O)N1CCN(c2nc(=O)n(-c3c(C)ccnc3C(C)C)c3nc(-c4c(O)cccc4F)c(F)cc23)C(C)C1 (stereo not given) + Cc1c(S(C)(=O)=O)c(-c2cc(F)cc(N3CCN(c4ccc(NS(=O)(=O)c5ccc(NC(CCN6CCC(C(=O)OCCCP(=O)(O)O)CC6)CSc6ccccc6)c(S(=O)(=O)C(F)(F)F)c5)cc4)CC3)c2)c(-c2ccc(Cl)cc2)n1C(C)C")
62.3
>>> number("Cn1ncnc1[C@H]1c2n[nH]c(=O)c3cc(F)cc(c23)N[C@@H]1c1ccc(F)cc1 + Cc1c(S(C)(=O)=O)c(-c2cc(F)cc(N3CCN(c4ccc(NS(=O)(=O)c5ccc(NC(CCN6CCC(C(=O)OCCCP(=O)(O)O)CC6)CSc6ccccc6)c(S(=O)(=O)C(F)(F)F)c5)cc4)CC3)c2)c(-c2ccc(Cl)cc2)n1C(C)C")
10.6
>>> number("NC1CCC(NC2CC2c2ccccc2)CC1 (stereo not given) + Cc1c(S(C)(=O)=O)c(-c2cc(F)cc(N3CCN(c4ccc(NS(=O)(=O)c5ccc(NC(CCN6CCC(C(=O)OCCCP(=O)(O)O)CC6)CSc6ccccc6)c(S(=O)(=O)C(F)(F)F)c5)cc4)CC3)c2)c(-c2ccc(Cl)cc2)n1C(C)C")
13.2
>>> number("CNC(C)C(=O)NC1CN(S(=O)(=O)c2cccc(S(=O)(=O)N3CCC4CCC(C(=O)NC(c5ccccc5)c5ccccc5)N4C(=O)C(NC(=O)C(C)NC)C3)c2)CCC2CCC(C(=O)NC(c3ccccc3)c3ccccc3)N2C1=O (stereo not given) + Cc1c(S(C)(=O)=O)c(-c2cc(F)cc(N3CCN(c4ccc(NS(=O)(=O)c5ccc(NC(CCN6CCC(C(=O)OCCCP(=O)(O)O)CC6)CSc6ccccc6)c(S(=O)(=O)C(F)(F)F)c5)cc4)CC3)c2)c(-c2ccc(Cl)cc2)n1C(C)C")
29.5
>>> number("COc1c(OCCCN2CCOCC2)ccc2c3n(c(=NC(=O)c4cnc(N)nc4)nc12)CCN3 + Cc1c(S(C)(=O)=O)c(-c2cc(F)cc(N3CCN(c4ccc(NS(=O)(=O)c5ccc(NC(CCN6CCC(C(=O)OCCCP(=O)(O)O)CC6)CSc6ccccc6)c(S(=O)(=O)C(F)(F)F)c5)cc4)CC3)c2)c(-c2ccc(Cl)cc2)n1C(C)C")
19.3
